Consider the following compounds and their measured selectivity ratio readings.
- assay protocol: Selectivity index, ratio of IC50 for cytotoxicity against African green monkey Vero cells to IC50 for antitrypanosomal activity against Trypanosoma brucei rhodesiense STI B900
- Assay type: toxicity, cell-based
- setup conditions: read-out: Ratio IC50

>  <compound>
CN1Cc2ccc(OCc3ccc(-c4ccc(F)cc4)cc3)cc2[C@@H](O)C1

>  <selectivity ratio>
24.1

$$$$
>  <compound>
Oc1ccc2c(c1)C(O)CN(Cc1ccccc1)C2 (centres undefined)

>  <selectivity ratio>
> 1.4

$$$$
>  <compound>
OC1CNCc2c(OCc3ccc(Br)cc3)cccc21 (centres undefined)

>  <selectivity ratio>
> 19.7

$$$$
>  <compound>
CN1CCc2cc(OCCCN3CCOCC3)ccc2C1

>  <selectivity ratio>
> 1.9

$$$$
>  <compound>
CN1Cc2ccc(OCc3cccc(-c4ccc(Cl)cc4)c3)cc2[C@@H](O)C1

>  <selectivity ratio>
9.4

$$$$
>  <compound>
CN1Cc2ccc(OCCCc3ccccc3)cc2[C@@H](O)C1

>  <selectivity ratio>
> 2.7

$$$$
>  <compound>
CN1Cc2ccc(OC(c3ccccc3)(c3ccccc3)c3ccccc3)cc2[C@@H](O)C1

>  <selectivity ratio>
4.2

$$$$
>  <compound>
CN1Cc2ccc(OCc3ccc([N+](=O)[O-])cc3)cc2[C@@H](O)C1

>  <selectivity ratio>
> 3

$$$$
>  <compound>
CN1CCc2cc(OCc3ccc(-c4ccccc4)cc3)ccc2C1

>  <selectivity ratio>
7.2

$$$$
>  <compound>
OC1CNCc2ccc(OCc3cccc(Br)c3)cc21 (centres undefined)

>  <selectivity ratio>
16.3

$$$$
>  <compound>
OC1CCCc2ccc(OCc3ccccc3)cc21 (centres undefined)

>  <selectivity ratio>
0.6

$$$$
>  <compound>
CN1CCc2cc(Oc3ccccc3)ccc2C1

>  <selectivity ratio>
> 5.7

$$$$
>  <compound>
CN1Cc2ccc(OCc3ccc(Oc4ccccc4)cc3)cc2[C@@H](O)C1

>  <selectivity ratio>
1.3

$$$$
>  <compound>
Cc1ccccc1COc1cccc2c1CNCC2O (centres undefined)

>  <selectivity ratio>
> 6.1

$$$$
>  <compound>
CN1CCc2cc(-c3ccccc3)ccc2C1

>  <selectivity ratio>
> 16.7

$$$$
>  <compound>
Cc1cccc(COc2ccc3c(c2)[C@@H](O)CN(C)C3)c1

>  <selectivity ratio>
> 2.5

$$$$
>  <compound>
COc1ccc(COc2ccc3c(c2)[C@@H](O)CN(C)C3)cc1

>  <selectivity ratio>
> 2.9

$$$$
>  <compound>
CN1Cc2ccc(OCCC3CCCCC3)cc2[C@@H](OCCC2CCCCC2)C1

>  <selectivity ratio>
10.3

$$$$
>  <compound>
CN1Cc2ccc(OCCCn3ccnc3[N+](=O)[O-])cc2[C@@H](O)C1

>  <selectivity ratio>
> 2.3

$$$$
>  <compound>
CN1Cc2ccc(OCc3cccc(Br)c3)cc2[C@@H](O)C1

>  <selectivity ratio>
27.4

$$$$
>  <compound>
OC1CNCc2c(OCc3ccccc3)cccc21 (centres undefined)

>  <selectivity ratio>
> 1.9

$$$$
>  <compound>
Oc1ccc2c(c1)C(O)CN(Cc1ccc(-c3ccccc3)cc1)C2 (centres undefined)

>  <selectivity ratio>
> 9.3

$$$$
>  <compound>
CN1Cc2ccc(OCc3ccc(-c4ccccc4)cc3)cc2[C@@H](OC(=O)c2ccccc2)C1

>  <selectivity ratio>
0.6

$$$$
>  <compound>
CN1Cc2ccc(O)cc2[C@@H](OCCC2CCCCC2)C1

>  <selectivity ratio>
> 2.6

$$$$
